- Assay name: thermal stability
- Format: physicochemical
- Applied conditions: water/ethanol 1:3, 50 °C, 5 mM solution in water/ethanol 1:3 v/v, read-out: Residual amounts (%) after 100 hours
Readout: remaining at 100 h, 5000 µM (%)

| Compound | Value observed |
| --- | --- |
| Cc1c(C)c2c(c(C)c1O)CCC(C)(CCCC(C)CCCC(C)CCCC(C)C)O2 (stereo not drawn) [α-Tocopherol, reference compound] | 85 |

* * *

- Assay name: thermal stability
- Format: physicochemical
- Applied conditions: water/ethanol 1:3, 60 °C, 5 mM solution in water/ethanol 1:3 v/v, read-out: Residual amounts (%) after 100 hours
Readout: remaining at 100 h, 5000 µM (%)

| Compound | Value observed |
| --- | --- |
| Cc1c(C)c2c(c(C)c1O)CCC(C)(CCCC(C)CCCC(C)CCCC(C)C)O2 (stereo not drawn) [α-Tocopherol, reference compound] | 79 |
